// reported IC50 per item
Tested on: SUM159 cells
Assay: Sphere formation in ultra-low attachment plates, SUM159 cells
Assay type: cell-based
Settings: Homo sapiens, cultured 7-10 days, read-out: Concentration of the drug that induced 50% reduction in sphere formation
Express the reported value numerically, then name its unit.

Here are 2 molecules together with their reported answers.
smiles-entry: CC(C)(C)Cn1c(N)nc2ccc(-c3[nH]c(C(C)(C)C)nc3-c3ccc(F)cc3)nc21
observation-type: IC50
recorded-measurement: 300 nM
--
smiles-entry: CNC(=O)c1ccc(C)c(-n2c(C)cc(OCc3ccc(F)cc3F)c(Br)c2=O)c1
observation-type: IC50
recorded-measurement: 100 nM

Form field IC50, entry NC(=O)c1ccc(N(C(N)=O)c2c(F)cccc2F)nc1-c1ccc(F)cc1F : 50000 nM

----------
Test system: HMLE-Snail cells
Assay: Sphere formation in ultra-low attachment plates, HMLE-Snail cells
Format: cell-based, human
Conditions: Homo sapiens, cultured 7-10 days, read-out: Concentration of the drug that induced 50% reduction in sphere formation
observation-type: pIC50
Scale explanation: pIC50 corresponds to minus log10 of a concentration expressed in moles per litre.

smiles-entry: CNC(=O)c1ccc(C)c(-n2c(C)cc(OCc3ccc(F)cc3F)c(Br)c2=O)c1
pIC50: 6.52

Next item in the queue.
Form field pIC50, entry CC(C)(C)Cn1c(N)nc2ccc(-c3[nH]c(C(C)(C)C)nc3-c3ccc(F)cc3)nc21 : 5.52

// data source = patent US20190125735A1
